subject-of-test: ~100 representative kinases (Homo sapiens, UniProt Q99683)
Construct: Recombinant protein kinase domains with a concentration of 2 μM
Sequence (Q99683 1-1374): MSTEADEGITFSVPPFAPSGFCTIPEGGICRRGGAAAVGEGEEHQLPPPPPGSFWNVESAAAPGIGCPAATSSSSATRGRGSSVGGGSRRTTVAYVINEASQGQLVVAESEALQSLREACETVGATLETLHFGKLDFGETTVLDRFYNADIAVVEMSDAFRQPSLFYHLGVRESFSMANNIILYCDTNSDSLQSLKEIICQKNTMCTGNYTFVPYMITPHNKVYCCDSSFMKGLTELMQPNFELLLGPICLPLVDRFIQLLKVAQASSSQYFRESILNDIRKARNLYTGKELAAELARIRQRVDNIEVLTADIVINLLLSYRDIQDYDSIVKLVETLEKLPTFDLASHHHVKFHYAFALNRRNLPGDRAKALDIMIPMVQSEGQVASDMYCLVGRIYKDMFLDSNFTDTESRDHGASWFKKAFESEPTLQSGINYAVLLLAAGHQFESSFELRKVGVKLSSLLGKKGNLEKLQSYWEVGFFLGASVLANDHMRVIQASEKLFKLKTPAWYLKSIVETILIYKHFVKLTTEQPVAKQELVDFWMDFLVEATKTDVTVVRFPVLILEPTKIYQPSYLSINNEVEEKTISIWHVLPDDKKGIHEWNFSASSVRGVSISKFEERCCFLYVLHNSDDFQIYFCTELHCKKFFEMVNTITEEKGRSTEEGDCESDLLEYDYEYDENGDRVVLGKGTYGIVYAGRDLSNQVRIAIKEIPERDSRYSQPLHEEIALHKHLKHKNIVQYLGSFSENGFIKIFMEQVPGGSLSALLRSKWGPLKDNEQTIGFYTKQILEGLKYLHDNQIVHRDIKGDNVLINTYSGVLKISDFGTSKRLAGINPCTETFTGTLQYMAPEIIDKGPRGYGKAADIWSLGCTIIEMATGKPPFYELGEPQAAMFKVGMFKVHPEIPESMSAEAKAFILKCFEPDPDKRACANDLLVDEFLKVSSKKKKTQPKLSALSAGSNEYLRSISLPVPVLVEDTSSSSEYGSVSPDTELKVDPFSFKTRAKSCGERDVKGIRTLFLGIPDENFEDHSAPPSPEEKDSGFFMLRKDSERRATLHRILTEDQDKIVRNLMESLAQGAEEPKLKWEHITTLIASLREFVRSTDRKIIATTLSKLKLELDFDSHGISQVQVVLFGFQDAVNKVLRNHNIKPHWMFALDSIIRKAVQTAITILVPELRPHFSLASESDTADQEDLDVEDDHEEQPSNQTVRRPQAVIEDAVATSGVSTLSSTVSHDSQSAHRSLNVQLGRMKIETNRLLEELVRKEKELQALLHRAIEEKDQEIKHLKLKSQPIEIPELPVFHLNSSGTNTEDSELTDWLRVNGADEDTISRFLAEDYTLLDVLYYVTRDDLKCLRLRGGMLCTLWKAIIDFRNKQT
test-protocol: DSF 100 kinase selectivity screen;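 further: compound tested at 20 µM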
Format: binding
condition-label: protein MAP3K5; average of three replicates
measured-parameter: dTm (K)
Please state the figure in K; there is no need to write the unit.

For this compound ( Cc1ccc(NC(=O)C2(C(=O)Nc3cccc(-c4c[nH]c5ncnc(N6CCOCC6)c45)c3)CC2)cc1 [Compound 14] ), measured dTm is 1.35

So for O=C(Nc1cccc(-c2c[nH]c3ncnc(N4CCOCC4)c23)c1)C1(C(=O)Nc2ccc(F)c(F)c2)CC1 [Compound 17] , the logged dTm turned out to be 3.32

Lookup result for C[C@@H]1CN(c2cc(-c3n[nH]c4ccc(OC5(C)CC5)cc34)ncn2)C[C@H](C)O1 [MLi2] ; measured dTm: 3.65

// recorded dTm for Cc1cc(NC(=O)C2(C(=O)Nc3cccc(-c4c[nH]c5ncnc(N6CCOCC6)c45)c3)CC2)ccc1F [Compound 20] : 4.77

What the record says about O=C(Nc1cccc(-c2c[nH]c3ncnc(N4CCOCC4)c23)c1)C1(C(=O)Nc2cc(Br)c(F)cc2F)CC1 [Compound 25] : dTm is 2.91

Noted for O=C(Nc1cccc(-c2c[nH]c3ncnc(N4CCOCC4)c23)c1)C1(C(=O)Nc2ccc(F)c(Cl)c2)CC1 [Compound 18] : its dTm reads 3.67

The compound CC(C)(C)c1cc(NC(=O)Nc2cccc(-c3c[nH]c4ncnc(N5CCOCC5)c34)c2)n(-c2ccc3ncccc3c2)n1 [Compound 28] showed dTm equal to 3.36
